tested on: HL-60(TB) leukemia; experiment: NCI-60 one-dose screen, 48 h (100 = growth as untreated, 0 = no growth, -100 = all killed); conditions: 10 µM unless noted
Compounds without any hit were thinned out: in the full panel of roughly 83,000, 20% have a hit.
parameter measured: growth (%)
Number in %, nothing else.

INSERT INTO assay_data (molecule, reported_measurement) VALUES
  ('Cc1nn(-c2ccc(Cl)cc2)c(=O)n1CCn1cnc2ccccc21', 102);

get_value(item= COc1ccc(-c2coc3c(CO)c(O)ccc3c2=O)cc1 , readout=growth) returns -24.9

get_value(item= N=C(N)c1ccc(-c2ccc(/C=C/c3ccccc3)s2)cc1 , readout=growth) returns -39.5

get_value(item= NCCOc1ncccc1/C=C1\c2ccccc2-c2ccc([N+](=O)[O-])cc21 , readout=growth) returns -41.7
